# Test system: MALME-3M melanoma
# assay overview: NCI tumour cell line growth inhibition, 48 h
readout: TGI (µM)
Reply with just the number (in µM).

Q) # returns recorded TGI (system: MALME-3M melanoma) for O=C1CCC/C=C\C[C@H]2C=C(Cl)C(=O)/C2=C/C[C@H](CCCCC(F)(F)F)OC(=O)CCC/C=C\C[C@H]2C=C(Cl)C(=O)/C2=C/C[C@H](CCCCC(F)(F)F)O1
A) 0.694

Q) Note, next up: N#Cc1c([N+](=O)[O-])cc(C(F)(F)F)cc1[N+](=O)[O-]
A) 25.5

Q) Note, next up: COc1c(O)c2ccccc2c2cc(O)ccc12
A) 3.18

Pending molecule:
Q) # returns recorded TGI (system: MALME-3M melanoma) for CCCCc1ccc2nc(NC(=O)OC)[nH]c2c1
A) 23.7
